Quick list: Selectivity per entry.
- Tested on: Hepatitis C virus
- assay.name: Selectivity was determined as the ratio of IC50 of non-IRES to that of IC50 of HCV-IRES
- Format: functional, Hepacivirus hominis

Example results:
Return the recorded Selectivity value; entry: Cc1cc(C)nc(/N=C(\N)NCc2ccco2)n1
>2

Respond only with Selectivity recorded for CCOc1ccc(CC/N=C(\N)Nc2nc(C)cc(C)n2)cc1
>2.4

Could you please provide reported Selectivity for Cc1cc(C)nc(/N=C(\N)NCCc2ccc(OC(F)(F)F)cc2)n1 ? Thanks!
>2.2

// fetch Selectivity given entry Cc1cc(C)nc(/N=C(\N)NCCc2ccc(-c3ccccc3)cc2)n1
>2.5

We now examine a further molecule.
Give the measured Selectivity for Cc1cc(C)nc(N/C(N)=N/CCc2ccc(C(C)C)cc2)n1
>1.9

---

- System: Hepatitis C virus
- assay.name: In vitro inhibitory concentration against hepatitis C virus internal ribosome entry site (HCV-IRES) translation
- Type: functional, Hepacivirus hominis
Sorting guide: entries reporting IC50 beneath 40 µM go in the criterion met pile, the rest go in the criterion not met pile.

Strictly below 40 µM in IC50? Cc1cc(C)nc(/N=C(\N)NCCc2ccc(C(C)(C)C)cc2)n1
criterion not met

Here's an entry: Cc1cc(C)nc(/N=C(\S)NCCc2ccccc2)n1 . Is its IC50 below 40 µM?
criterion not met

Is IC50 strictly under 40 µM for the entry Cc1cc(C)nc(NC(=N)N(C)CCc2ccccc2)n1 ?
criterion not met

More entries:
Here's an entry: COc1ccc(CCNC(=N)Nc2nc(C)cc(C)n2)cc1 . Is its IC50 below 40 µM?
criterion met

Determine whether this compound shows IC50 lower than 40 µM (ties excluded): CCOc1ccc(CC/N=C(\N)Nc2nc(C)cc(C)n2)cc1
criterion not met

hey, is IC50 for Cc1ccc(C)c(CC/N=C(\N)Nc2nc(C)cc(C)n2)c1 lower than 40 µM or not?
criterion met

---

- Tested on: Hepatitis C virus
- assay.name: In vitro inhibitory concentration against hepatitis C virus internal ribosome entry site (HCV-IRES) translation
- Type: functional, Hepacivirus hominis
measurement.label: IC50 (µM)
# number only, unit µM dropped from output

Recorded results for 4 compounds are shown here.
Given the compound Cc1cc(C)nc(/N=C(\N)NCCCc2ccccc2)n1 , write its reported IC50.
150

Supply reported IC50 belonging to this compound: Cc1cc(C)nc(/N=C(\N)NCCc2ccc(Br)cc2)n1
50

Tell me measured IC50 for Cc1ccnc(/N=C(\N)NCCc2ccccc2)n1 please.
46

Consider the compound Cc1ccc(CC/N=C(\N)Nc2nc(C)cc(C)n2)cc1 . State its measured IC50.
34

Next:
Could you please provide reported IC50 for Cc1cc(C)nc(/N=C(\N)NCc2nc3ccccc3[nH]2)n1 ? Thanks!
23

Consider the compound Cc1cc(C)nc(/N=C(\N)NCCc2ccc(Cl)cc2)n1 . State its measured IC50.
24

Write down IC50 measured for item Cc1cc(C)nc(/N=C(\N)NCCc2ccc(F)cc2)n1
23

Return IC50 for the following compound: Cc1nc(/N=C(\N)NCCc2ccccc2)nc(C)c1OCCCN(C)C
2.1

Could you please provide reported IC50 for COc1cc(OC)nc(/N=C(\N)NCCc2ccccc2)n1 ? Thanks!
35

Please give measured IC50 of the following entry: Cc1cc(C)nc(/N=C(\N)NCC(c2ccccc2)c2ccccc2)n1
75

In one line, give reported IC50 of the entry Cc1cc(C)nc(/N=C(\N)NCCc2ccccc2)n1 .
9.6

Output IC50 of Cc1cc(C)nc(N/C(N)=N/C[C@H](C)c2ccccc2)n1
35

Respond only with IC50 recorded for Cc1cc(C)nc(/N=C(\N)NCc2ccccc2)n1
7.6

Let me know recorded IC50 for Cc1nc(/N=C(\N)NCCc2ccccc2)nc(C)c1O , thanks.
19

Tell me measured IC50 for Cc1cc(C)nc(/N=C(\N)NCc2ccco2)n1 please.
97

Identify IC50 associated with the compound Cc1nc(/N=C(\N)NCCc2ccccc2)nc(C)c1C
4.2

Provide IC50 value for the following compound: Cc1cc(C)nc(/N=C(\N)NCCc2ccncc2)n1
55

Using the record for Cc1cc(C)nc(/N=C(\N)NCCc2ccc(N)cc2)n1 , state its measured IC50.
61

---

- Test system: Hepatitis C virus
- assay.name: In vitro inhibitory concentration against hepatitis C virus internal ribosome entry site (HCV-IRES) translation
- Type: functional, Hepacivirus hominis
Below: a set of entries, each annotated with reported IC50.
Could you give me the number in µM? Just the number is fine.

Study these solved cases before continuing.
Output IC50 of Cc1cc(C)nc(/N=C(\N)NCCc2ccccn2)n1
39

Could you please provide reported IC50 for COc1ccccc1CC/N=C(\N)Nc1nc(C)cc(C)n1 ? Thanks!
13

Quote IC50 reported for CCc1cc(CC)nc(/N=C(\N)NCCc2ccccc2)n1 please.
13

Name the recorded IC50 of the item Cc1cc(C)nc(/N=C(\N)NCc2cccs2)n1 in your answer.
38

Here's the next entry for you.
Hello, please tell me recorded IC50 for this one: COc1ccc(OC)c(CC/N=C(\N)Nc2nc(C)cc(C)n2)c1
94
